Notes on pIC50 obtained with Mu-type opioid receptor (Homo sapiens, UniProt P35372).
Sequence (P35372 whole entry): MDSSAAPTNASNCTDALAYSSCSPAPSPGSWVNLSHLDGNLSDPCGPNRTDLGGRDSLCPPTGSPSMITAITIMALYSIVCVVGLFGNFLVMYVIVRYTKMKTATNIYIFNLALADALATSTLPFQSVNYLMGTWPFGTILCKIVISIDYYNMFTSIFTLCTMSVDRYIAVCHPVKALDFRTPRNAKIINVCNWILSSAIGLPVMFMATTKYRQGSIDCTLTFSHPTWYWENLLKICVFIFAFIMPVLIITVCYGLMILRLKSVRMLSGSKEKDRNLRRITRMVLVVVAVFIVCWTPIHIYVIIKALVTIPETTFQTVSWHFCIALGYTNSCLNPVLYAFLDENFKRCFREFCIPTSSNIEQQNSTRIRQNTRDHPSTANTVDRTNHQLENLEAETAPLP
pIC50: −log10 of the molar value.
quantity.name: pIC50

smiles_data=Cc1cc(O)cc(C)c1C[C@H](N)C(=O)N1Cc2ccccc2C[C@H]1CNCC(C)(C)C test_result=8.89
smiles_data=Cc1cc(O)cc(C)c1C[C@H](N)C(=O)N1Cc2ccccc2C[C@H]1CN=C(N)N test_result=7.89
smiles_data=Cc1cc(O)cc(C)c1C[C@H](N)C(=O)N1Cc2ccccc2C[C@H]1CNC(=O)c1ccccc1 test_result=9.01
smiles_data=CC(=O)NC[C@@H]1Cc2ccccc2CN1C(=O)[C@@H](N)Cc1c(C)cc(O)cc1C test_result=7.79
smiles_data=Cc1cc(O)cc(C)c1C[C@H](N)C(=O)N1Cc2ccccc2C[C@H]1CNCc1ccccc1 test_result=9.19
smiles_data=Cc1cc(O)cc(C)c1C[C@H](N)C(=O)N1Cc2ccccc2C[C@H]1CN(C)C test_result=7.08
smiles_data=CC(=O)OC[C@@H]1Cc2ccccc2CN1C(=O)[C@@H](N)Cc1c(C)cc(O)cc1C test_result=8.33
smiles_data=Cc1cc(O)cc(C)c1C[C@H](N)C(=O)N1Cc2ccccc2C[C@H]1CNC(=O)NC(C)(C)C test_result=7.21
smiles_data=COC[C@@H]1Cc2ccccc2CN1C(=O)[C@@H](N)Cc1c(C)cc(O)cc1C test_result=6.34
smiles_data=Cc1cc(O)cc(C)c1C[C@H](N)C(=O)N1Cc2ccccc2C[C@H]1CNC(=S)Nc1ccccc1 test_result=8.27
smiles_data=CC(=N)NC[C@@H]1Cc2ccccc2CN1C(=O)[C@@H](N)Cc1c(C)cc(O)cc1C test_result=7.48
smiles_data=Cc1cc(O)cc(C)c1C[C@H](N)C(=O)N1Cc2ccccc2C[C@H]1CN=[N+]=[N-] test_result=7.02
smiles_data=Cc1cc(O)cc(C)c1C[C@H](N)C(=O)N1Cc2ccccc2C[C@H]1CNC(=O)C(C)(C)C test_result=7.60
smiles_data=Cc1cc(O)cc(C)c1C[C@H](N)C(=O)N1Cc2ccccc2C[C@H]1CNC(=S)NC(C)(C)C test_result=7.44
smiles_data=Cc1cc(O)cc(C)c1C[C@H](N)C(=O)N1Cc2ccccc2C[C@H]1COCc1ccccc1 test_result=7.90
smiles_data=C=CCOC[C@@H]1Cc2ccccc2CN1C(=O)[C@@H](N)Cc1c(C)cc(O)cc1C test_result=6.97
smiles_data=Cc1cc(O)cc(C)c1C[C@H](N)C(=O)N1Cc2ccccc2C[C@H]1CNC(=O)NC12CC3CC(CC(C3)C1)C2 test_result=8.96
smiles_data=Cc1cc(O)cc(C)c1C[C@H](N)C(=O)N1Cc2ccccc2C[C@H]1C test_result=8.52

###

# Emax annotations
- assay.system: Kappa-type opioid receptor (Homo sapiens)
- Sequence (P41145 whole entry): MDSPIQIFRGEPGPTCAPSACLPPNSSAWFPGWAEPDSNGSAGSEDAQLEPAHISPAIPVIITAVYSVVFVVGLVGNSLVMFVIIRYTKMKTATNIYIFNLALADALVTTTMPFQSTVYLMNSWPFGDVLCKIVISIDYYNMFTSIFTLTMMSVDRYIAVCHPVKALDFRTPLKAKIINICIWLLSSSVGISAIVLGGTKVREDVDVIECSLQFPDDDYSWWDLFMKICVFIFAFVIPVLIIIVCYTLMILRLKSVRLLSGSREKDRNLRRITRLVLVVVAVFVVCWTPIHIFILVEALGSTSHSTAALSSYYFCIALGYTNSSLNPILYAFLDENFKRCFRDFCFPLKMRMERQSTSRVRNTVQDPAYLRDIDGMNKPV
- protocol.notes: Compound was tested for maximum stimulation of opioid receptor kappa 1 by GTP-gamma [35S]- binding assay
quantity.name: Emax (%)

smiles_data=Cc1cc(O)cc(C)c1C[C@H](N)C(=O)N1Cc2ccccc2C[C@H]1CNC(=O)NC(C)(C)C test_result=96.9
smiles_data=Cc1cc(O)cc(C)c1C[C@H](N)C(=O)N1Cc2ccccc2C[C@H]1CNCc1ccccc1 test_result=100
smiles_data=Cc1cc(O)cc(C)c1C[C@H](N)C(=O)N1Cc2ccccc2C[C@H]1C/N=C(/S)NC(C)(C)C test_result=99.6
smiles_data=Cc1cc(O)cc(C)c1C[C@H](N)C(=O)N1Cc2ccccc2C[C@H]1CNC(=O)NC12CC3CC(CC(C3)C1)C2 test_result=81.7
smiles_data=Cc1cc(O)cc(C)c1C[C@H](N)C(=O)N1Cc2ccccc2C[C@H]1CNC(=O)Nc1ccccc1 test_result=81.7
smiles_data=Cc1cc(O)cc(C)c1C[C@H](N)C(=O)N1Cc2ccccc2C[C@H]1CNCC(C)(C)C test_result=102
